# Experiment Notes: self-splicing fitness, log relative to wild type (ln ratio); higher = more splicing; Tetrahymena group I intron in knt gene, E. coli kanamycin selection, DiMSum; sequences stand for … in CUCUCU…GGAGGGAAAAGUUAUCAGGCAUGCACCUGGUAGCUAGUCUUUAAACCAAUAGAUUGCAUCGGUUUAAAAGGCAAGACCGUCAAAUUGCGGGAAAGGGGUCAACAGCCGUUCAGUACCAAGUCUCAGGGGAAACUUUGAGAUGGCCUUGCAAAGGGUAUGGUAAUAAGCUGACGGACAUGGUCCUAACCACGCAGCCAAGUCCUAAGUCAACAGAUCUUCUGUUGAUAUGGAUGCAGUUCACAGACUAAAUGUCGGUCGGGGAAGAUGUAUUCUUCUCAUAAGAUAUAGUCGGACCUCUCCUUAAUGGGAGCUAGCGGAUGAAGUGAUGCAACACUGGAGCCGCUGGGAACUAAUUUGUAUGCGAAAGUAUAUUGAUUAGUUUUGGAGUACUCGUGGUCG;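 further: selection with 25 µg/mL kanamycin versus none on LB agar overnight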
# Setup Conditions: 37 °C
Recorded self-splicing fitness (ln) values for a group of sequences are listed next.

Below are worked cases with known answers.
Complete the entry with self-splicing fitness (ln) for `AGGAAGCAAUAUUACGUUCU`
-1.59

Complete the entry with self-splicing fitness (ln) for `AACAAGCAAUAUUACGUGCG`
-0.476

Complete the entry with self-splicing fitness (ln) for `UAUCAGCAAUAUUACGGGGU`
-2.48

Continuing:
Complete the entry with self-splicing fitness (ln) for `UGAUAGCAAUAUUACGAGGA`
-2.82

Complete the entry with self-splicing fitness (ln) for `UUCAAGCAAUAUUACGGCUU`
-1.16

Complete the entry with self-splicing fitness (ln) for `CUUAAGCAAUAUUACGGAGA`
-2.31

Complete the entry with self-splicing fitness (ln) for `AUGCAGCAAUAUUACGUGUG`
-1.44

Complete the entry with self-splicing fitness (ln) for `GCCUAGCAAUAUUACGUCGA`
-1.6

Complete the entry with self-splicing fitness (ln) for `CCAUAGCAAUAUUACGUGGA`
-2.16

Complete the entry with self-splicing fitness (ln) for `GGACAGCAAUAUUACGCAGC`
-0.558

###

Recorded self-splicing fitness (ln) values for a group of sequences are listed next.
# Experiment Notes: self-splicing fitness, log relative to wild type (ln ratio); higher = more splicing; Tetrahymena group I intron in knt gene, E. coli kanamycin selection, DiMSum; sequences stand for … in CUCUCU…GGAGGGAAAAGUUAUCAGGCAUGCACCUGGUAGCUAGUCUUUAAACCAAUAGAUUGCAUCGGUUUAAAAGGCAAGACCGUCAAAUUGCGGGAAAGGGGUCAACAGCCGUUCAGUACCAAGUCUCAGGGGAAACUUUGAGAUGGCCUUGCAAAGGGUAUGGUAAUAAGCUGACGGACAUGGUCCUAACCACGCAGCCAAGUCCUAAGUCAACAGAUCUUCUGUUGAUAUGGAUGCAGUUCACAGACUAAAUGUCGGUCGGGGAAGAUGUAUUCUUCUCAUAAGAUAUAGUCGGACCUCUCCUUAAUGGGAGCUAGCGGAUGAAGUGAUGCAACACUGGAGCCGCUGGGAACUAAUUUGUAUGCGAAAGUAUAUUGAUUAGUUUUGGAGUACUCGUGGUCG
# Setup Conditions: 37 °C
Give the figure only, with no unit attached.

Complete the entry with self-splicing fitness (ln) for `GUCCAGCAAUAUUACGUGCC`
-0.944

Continuing:
Complete the entry with self-splicing fitness (ln) for `AGUUAGCAAUAUUACGCCCU`
-0.312

Complete the entry with self-splicing fitness (ln) for `AUGAAGCAAUAUUACGGGAU`
-0.499

Complete the entry with self-splicing fitness (ln) for `UGUGAGCAAUAUUACGAAGG`
-2.19

Complete the entry with self-splicing fitness (ln) for `CCAUAGCAAUAUUACGCGUU`
-2.51

Complete the entry with self-splicing fitness (ln) for `CCAUAGCAAUAUUACGAGUC`
-2.89

Complete the entry with self-splicing fitness (ln) for `UAUCAGCAAUAUUACGCUAA`
0.529

Complete the entry with self-splicing fitness (ln) for `AAGAAGCAAUAUUACGGUAA`
-0.929

Complete the entry with self-splicing fitness (ln) for `CAGCAGCAAUAUUACGUCUU`
0.3

Complete the entry with self-splicing fitness (ln) for `AGCGAGCAAUAUUACGGCCA`
-1.27
